Tested on: Mycobacterium tuberculosis H37Rv
ASSAY_PROTOCOL: Anti-tuberculosis activity test in vitro (Microplate Alamar Blue Assay, MABA)
Type: cell-based
RUN_CONDITIONS: M. tuberculosis H37Rv, MABA, 7H9 medium, method says MIC90 was calculated, read-out: MIC
PARAMETER_MEASURED: MIC

                                    compound  assay_value
 0  O=C1O[C@@H](CNC2COC2)[C@@H]2COc3cc(N4CCSCC4)c(F)cc3N12  0.237 µg/mL
 1  O=C1O[C@H](CNc2ccon2)[C@H]2COc3cc(N4CCSCC4)c(F)cc3N12  0.123 µg/mL
 2  O=C(NC[C@@H]1OC(=O)N2c3cc(F)c(N4CCSCC4)cc3OC[C@@H]12)C(F)F    0.1 µg/mL
 3  CC(=O)NC[C@H]1CN(c2ccc(N3CCOCC3)c(F)c2)C(=O)O1 [Linezolid, reference compound]  0.294 µg/mL
 4  CC(=O)NC[C@@H]1OC(=O)N2c3cc(F)c(N4CCC(F)(F)CC4)cc3OC[C@@H]12  0.908 µg/mL
 5  O=C(NC[C@@H]1OC(=O)N2c3cc(F)c(N4CC[S+]([O-])CC4)cc3OC[C@@H]12)C(F)F  0.492 µg/mL
 6  COC(=O)NC[C@H]1OC(=O)N2c3cc(F)c(N4CCSCC4)cc3OC[C@H]12  0.208 µg/mL
 7  CC(=O)NC[C@H]1OC(=O)N2c3cc(F)c(N4CCSCC4)cc3OC[C@H]12  0.232 µg/mL
 8  CC(=O)NC[C@@H]1OC(=O)N2c3cc(F)c(N4CC[S+]([O-])CC4)cc3OC[C@@H]12  0.442 µg/mL
 9  O=C(NC[C@@H]1OC(=O)N2c3cc(F)c(N4CCSCC4)cc3OC[C@@H]12)c1ccncc1   0.16 µg/mL
10  CC(C)C(=O)NC[C@@H]1OC(=O)N2c3cc(F)c(N4CCSCC4)cc3OC[C@@H]12  0.095 µg/mL
11  CC(=O)NC[C@H]1CN(c2ccc(N3CCSCC3)c(F)c2)C(=O)O1 [Sutezolid, reference compound]  0.078 µg/mL
12  O=C(NC[C@@H]1OC(=O)N2c3cc(F)c(N4CCSCC4)cc3OC[C@@H]12)C1CCC1   0.03 µg/mL
13  CC(=O)NC[C@@H]1OC(=O)N2c3ccc(N4CCOCC4)cc3OC[C@@H]12 [Compound VII, reference compound]   1.55 µg/mL
14  CC(=O)NC[C@@H]1OC(=O)N2c3cc(F)c(N4CCSCC4)cc3OC[C@@H]12  0.044 µg/mL
